- systemName: wild-type HCV genotype 1b NS5B protein (recombinant HCV polymerase) (Hepatitis C virus genotype 1b, UniProt Q9WMX2)
- Construct: HCV genotype 1b NS5B protein were used to generate recombinant HCV polymerases (with a deletion of the 21 carboxy terminal amino acids); made in house
- test: HCV Polymerase Enzyme Assay, wild-type
- Format: biochemical
- conditionSummary: read-out: Wild-Type IC50; nucleoside triphosphates; wild-type genotype 1b NS5B
measuredQuantity: IC50

Consider the molecule O=c1ccn(C2O[C@](F)(COP(=O)(O)OP(=O)(O)OP(=O)(O)O)[C@@H](O)[C@H]2O)c(=O)[nH]1 (some centres unmarked) [Compound 102] and give its measured IC50.
250 to 1000 nM

Consider the molecule Nc1ccn(C2O[C@](F)(COP(=O)(O)OP(=O)(O)OP(=O)(O)O)[C@@H](O)[C@H]2O)c(=O)n1 (some centres unmarked) [Compound 105] and give its measured IC50.
250 to 1000 nM

----------
- systemName: wild-type HCV genotype 1b NS5B protein (recombinant HCV polymerase) (Hepatitis C virus genotype 1b, UniProt Q9WMX2)
- Construct: HCV genotype 1b NS5B protein were used to generate recombinant HCV polymerases (with a deletion of the 21 carboxy terminal amino acids); made in house
- test: HCV Polymerase Enzyme Assay, wild-type
- Type: biochemical
Kindly supply the reported IC50 values for the records listed here.

Consider the compound C[C@]1(O)[C@H](n2cc(Br)c(=O)[nH]c2=O)O[C@](F)(COP(=O)(O)OP(=O)(O)OP(=O)(O)O)[C@H]1O and give its measured IC50.
1 to 10 µM

Consider the compound Nc1ncnc2c1ncn2[C@@H]1O[C@](F)(COP(=O)(O)OP(=O)(O)OP(=O)(O)O)[C@@H](O)[C@H]1O and give its measured IC50.
> 10 µM

Consider the compound O=c1[nH]c(=O)n([C@@H]2O[C@](F)(COP(=O)(O)OP(=O)(O)OP(=O)(O)O)[C@@H](O)[C@H]2O)cc1Br and give its measured IC50.
1 to 10 µM

Consider the compound Nc1nc2c(ncn2[C@@H]2O[C@](F)(COP(=O)(O)OP(=O)(O)OP(=O)(O)O)[C@@H](O)[C@H]2O)c(=O)[nH]1 and give its measured IC50.
< 0.25 µM
